Cited source for all entries: PubChem BioAssay AID1259407

# System: CCRIS mutagenicity, Ames/micronucleus/aberration tests
# RUN_DESCRIPTION: CCRIS mutagenicity studies
# ASSAY_CONDITIONS: End Point: IN VITRO CHROMOSOMAL ABERRATIONS; Test System: CHINESE HAMSTER OVARY CELLS; Metabolic Activation: RAT, LIVER, S-9, AROCLOR 1254
Active and inactive are the calls of the source. How the calls were made is not given here.
# valid calls are true for active, false for inactive; nothing else

Recorded call for `CN(C)CCCN1c2ccccc2Sc2ccc(Cl)cc21` ? false

What did the test return for `CC(C)CCON=O` ? false

Tell me the recorded outcome of this test for `CCOCCO` . false

Hi, do you know how `Nc1ccc(N=Nc2ccccc2)c(N)n1` came out in this test? true

Dear all, I need the recorded test outcome for `Nc1ccc(Cl)cc1[N+](=O)[O-]` , thank you. true

Recorded test call requested for `Cc1cccc(C)c1N` true

Please share the test call associated with `Nc1ccc(-c2ccc(N)cc2)cc1` . true

---

# Test system: CCRIS mutagenicity, Ames/micronucleus/aberration tests
# RUN_DESCRIPTION: CCRIS mutagenicity studies
# ASSAY_CONDITIONS: Test System: MOUSE LYMPHOMA; Strain/Indicator: L5178Y (TK+/TK-); Metabolic Activation: RAT, LIVER, S-9, AROCLOR 1254; Method: SUSPENSION/PLATE
Activity calls are given as the source filed them. No rule for the calls is given here.
Field 'call' accepts active, inactive

Lab log entry: `Cc1ccc(N(C)C)cc1` — outcome as called in the assay? active

Outcome? `c1ccc(Nc2ccc3ccccc3c2)cc1` active

Please indicate how the test categorized `CNc1ccc(N(CCO)CCO)cc1[N+](=O)[O-]` . inactive

Name the outcome recorded for `Cc1cc(C)c(S(=O)(=O)O)cc1N=Nc1cc(S(=O)(=O)O)c2ccccc2c1O` in the assay. inactive

Just curious, what result did `S=C1NCCN1` get here? active

Outcome? `C[C@]12C=CC(=O)C=C1CC[C@@H]1[C@@H]2[C@@H](O)C[C@@]2(C)[C@H]1CC[C@]2(O)C(=O)CO` active

What classification did `c1ccccc1` end up with in this test? active

Query: recorded result category for CC1CCOB(OCCC(C)OB2OCCC(C)O2)O1 (centres undefined) in this test inactive

Just curious, what result did `C=CCc1ccc(O)cc1` get here? inactive

Please share the test call associated with `Clc1cc(Cl)c(Cl)cc1Cl` . inactive

Test call, this molecule: `CN(C)C(=O)Oc1ccc[n+](C)c1` active

Tell me the assay call for `CCCCC=O` please. inactive

Test call for this molecule, please: `O=c1oc2c(O)c(O)cc3c(=O)oc4c(O)c(O)cc1c4c23` inactive

Recorded test outcome, item `O=C(Cl)c1ccc([N+](=O)[O-])cc1` inactive

---

# Tested on: CCRIS mutagenicity, Ames/micronucleus/aberration tests
# RUN_DESCRIPTION: CCRIS mutagenicity studies
# ASSAY_CONDITIONS: Test System: AMES SALMONELLA TYPHIMURIUM; Strain/Indicator: TA98; Metabolic Activation: RAT, LIVER, S-9, AROCLOR 1254; Method: STANDARD PLATE
The source made the active and inactive calls. How the calls were made is not given here.
MEASURED_PARAMETER: mutagenic call

// below: answered compounds
{"COMPOUND": "CC(O)C(=O)NCCO (configuration not stated)", "mutagenic call": "active; positive"}
{"COMPOUND": "Nc1ccc(O)c([N+](=O)[O-])c1", "mutagenic call": "inactive; negative"}
{"COMPOUND": "CCCCC(CC)COC(=O)c1ccc(N(C)C)c([N+](=O)[O-])c1 (configuration not stated)", "mutagenic call": "active; positive"}
{"COMPOUND": "C=C(C)C(=O)OCCOC(=O)C(=C)C", "mutagenic call": "inactive; negative"}
{"COMPOUND": "CC(C)C1=CC2=CC[C@@H]3[C@](C)(CCC[C@@]3(C)C(=O)O)[C@H]2CC1", "mutagenic call": "inactive; negative"}
{"COMPOUND": "O=c1ccc2cc3cc4cccc5ccc(c2c1)c3c54", "mutagenic call": "inactive; negative"}
{"COMPOUND": "Cc1ccc2cc3ccccc3cc2c1", "mutagenic call": "inactive; negative"}
{"COMPOUND": "Oc1ccc2c(ccc3c4ccccc4ccc23)c1", "mutagenic call": "inactive; negative"}

Lab note: need mutagenic call with CCRIS mutagenicity, Ames/micronucleus/aberration tests for entry `Oc1cccc2c1ccc1c3ccccc3ccc21` , please look it up. inactive; negative

Query mutagenic call on CCRIS mutagenicity, Ames/micronucleus/aberration tests for `Cc1nc2c(C)cc3c(nc(N)n3C)c2nc1C` active; positive

Lab request: please report mutagenic call under test system CCRIS mutagenicity, Ames/micronucleus/aberration tests for `Cc1cc(O)c2c(c1)C(=O)c1c(c(O)cc(O)c1-c1c(O)cc(O)c3c1C(=O)c1cc(C)cc(O)c1C3=O)C2=O` inactive; negative

Report mutagenic call for `CCN(N=O)c1ccccc1` tested on CCRIS mutagenicity, Ames/micronucleus/aberration tests. inactive; negative
